# MEASUREMENT TARGET: HLA-B*15:01
# ASSAY NAME: IEDB peptide-MHC binding, purified MHC/competitive/fluorescence; filed as Kd, often an IC50 or EC50 that approximates it; bounds were set here for any values at or beyond the usual limits of such assays
# RECORDED CONDITIONS: source organism: Cryptosporidium parvum Iowa II
pKd: −log10 of the molar value.
VALUE TYPE: pKd

[[record]]
polymer_sequence = "SGLPGIFIV"
value_observed = "≤ 4.70"


###

# MEASUREMENT TARGET: HLA-B*39:01
# ASSAY NAME: IEDB peptide-MHC binding, purified MHC/competitive/fluorescence; filed as Kd, often an IC50 or EC50 that approximates it; bounds were set here for any values at or beyond the usual limits of such assays
# RECORDED CONDITIONS: source organism: Yersinia pestis Antiqua
VALUE TYPE: Kd

[[record]]
polymer_sequence = "PLTNQRYRV"
value_observed = "≥ 20 µM"

